experimentSummary: basal MM1S mitochondrial membrane potential changes, profiling panel, cell-based, JC-1 fluorescence, 24 h, 100 nL compound (AID 1170); further: test concentration not given here
measurementConditions: higher = more signal
Returns 1 if the recorded z-score is greater than or equal to -0.3, and -1 otherwise.

Examples from the recorded data:
compound	labelValue
COCC1=C([C@H](O)CCc2ccccc2)[C@H](CO)n2c(=O)n(-c3ccccc3)c(=O)n2C1	-1
COc1ccc(NN2C(C(O)c3cc(C(F)(F)F)cc(C(F)(F)F)c3)C=CC3C(=O)N(C4CCCCC4)C(=O)C32)cc1 (stereo not drawn)	-1
C=C(/C(=C/C[C@H](OC(=O)c1ccncc1)c1ccccc1OCCO)c1cc(C(=O)OC)ccc1OC)C(C)C	1
COc1cc2c(cc1O)C(c1ccc(CN3CCCC3)cc1)N(Cc1cccc(OC(F)(F)F)c1)CC2 (stereo not drawn)	-1
C=C(CCCC)C(=O)CC[C@H](OC(=O)c1cccnc1)c1ccc(CO)o1	1

Query block: Hi, just wondering whether `COCCOC(=O)N1C(=O)[C@@]2(c3cc(C#Cc4ccc(OC)cc4)ccc31)[C@H](C(=O)N1CCCCCCC1)[C@H]1C(=O)O[C@H](c3ccccc3)[C@H](c3ccccc3)N1[C@@H]2c1ccccc1OCCO` shows z-score of -0.3 or higher.
Result block: -1

Query block: Is it the case that C=CCC(OC(C)=O)[C@@H]1[C@@H](N(Cc2cccc3ccccc23)C(=O)c2ccc(-c3ccccc3)cc2)c2cc(OCCCO)ccc2N1C(=O)c1ccc2ccccc2n1 (stereo partly drawn) has z-score reaching or exceeding -0.3?
Result block: 1

Query block: Check this compound for z-score at or above -0.3: `CC(C)CNC(=O)[C@@H]1c2ccccc2C(=O)N(Cc2ccccc2)[C@H]1c1ccc(CO)cc1`
Result block: 1

----------
experimentSummary: basal RPMI8226 viability, no added stimulus, profiling panel, cell-based, calcein-AM fluorescence, 48 h, PK04 Diversity Set (AID 1166);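 further: cells grown under basal conditions without added stimulus; test concentration not given here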
measurementConditions: RPMI8226 myeloma viability, higher = more signal
Define the label as t when z-score is strictly less than -0.3 and as f in all remaining cases.

molecule	labelValue
COC(=O)[C@]1(CO)N=C(c2ccc(OCCCO)cc2)O[C@@H]1c1ccccc1CN=[N+]=[N-]	f
N#Cc1ccc(C(O)C2C=CC3C(=O)N(c4ccccc4)C(=O)C3N2Nc2ccc([N+](=O)[O-])cc2)cc1 (stereo unspecified)	t
C=CCC(OC(C)=O)[C@@H]1[C@@H](N(Cc2cc3ccccc3o2)C(=O)c2ccc(-c3ccccc3)cc2)c2cc(OCCCO)ccc2N1C(=O)c1ccc2ccccc2n1 (stereo partly specified)	f
COCCOC(=O)N1C(=O)[C@@]2(c3cc(C#Cc4ccc(OC)cc4)ccc31)[C@H](c1ccc(OCCO)cc1)N1[C@H](c3ccccc3)[C@H](c3ccccc3)OC(=O)[C@H]1[C@@H]2C(=O)N1CCCCCCC1	f
O=C1O[C@H](c2ccccc2)[C@H](c2ccccc2)N2[C@H]1[C@@H](C(=O)N1CCN(c3ncccn3)CC1)[C@]1(C(=O)Nc3ccccc31)[C@H]2c1ccc(O)cc1	t

Moving on to another molecule below.
Query block: Consider `COc1cccc(OC)c1C(=O)O[C@H]1[C@@H]2OC(=O)[C@H](Cc3cccc(Br)c3)C/C=C/C[C@@H](Cc3cccc(Br)c3)C(=O)O[C@H]2[C@@H](OC)O[C@@H]1CO` . Does its z-score lie strictly below -0.3?
Result block: t
